Measurement name: melting point

Here is how some molecules turned out for melting point.
> print(dat)
                         structure.notation         result
1  Cc1c(NC(=O)c2ccc(OCC3CC3)cc2)ccc2cc(CN[C@H]3CC[C@](C)(O)CC3)[nH]c12   91 to 103 °C
2  Cc1c(NC(=O)c2ccc(OCC3CC3)cc2)ccc2cc(CNCC3CCOCC3)[nH]c12  167 to 168 °C
3  Cc1c(NC(=O)c2ccc(OC[C@@H]3CCCO3)cc2)ccc2c1cc(CNCC(C)(C)O)n2C  160 to 162 °C
4  Cn1c(CNCC(C)(C)S(C)(=O)=O)cc2cc(NC(=O)c3ccc(OCC4CC4)cc3)ccc21  168 to 169 °C

Here's the next entry for you.
Exam item: Give the measured melting point for `Cc1c(NC(=O)c2ccc(OC[C@@H]3CCCO3)cc2)ccc2cc(CNCC(C)C)[nH]c12`
Marked response: 159 °C

---

Measurement name: melting point

Below are worked cases with known answers.
> print(dat)
                                   compound         result
1  Cc1c(NC(=O)c2ccc(OC[C@@H]3CCCO3)cc2)ccc2cc(CNCC3CCOCC3)[nH]c12 [Example 70]  161 to 162 °C
2  Cc1c(NC(=O)c2ccc(OC[C@@H]3CCCO3)cc2)ccc2cc(CNC3CCCC3)[nH]c12 [Example 73]  159 to 163 °C
3  Cc1c(NC(=O)c2ccc(OCC3CC3)cc2)ccc2cc(CNCC(C)C)[nH]c12 [Example 64]  176 to 177 °C

Next:
Exam item: Give the reported melting point for this compound. Cc1c(CN[C@H]2CC[C@](C)(O)CC2)n(C)c2c(F)c(NC(=O)c3ccc(OC[C@@H]4CCCO4)cc3)ccc12 [Example 112]
Marked response: 122 to 124 °C

---

Measurement name: melting point

In the examples that follow, each entry is paired with its recorded melting point.
> print(dat)
                                   compound         result
1  Cc1c(NC(=O)c2ccc(OC[C@@H]3CCCO3)cc2F)ccc2c1cc(CN[C@H]1CC[C@](C)(O)CC1)n2C         124 °C
2  Cc1c(CNCC2CCOCC2)n(C)c2c(F)c(NC(=O)c3ccc(OC[C@@H]4CCCO4)cc3)ccc12  132 to 134 °C
3  Cc1c(NC(=O)c2ccc(OC[C@@H]3CCCO3)cc2F)ccc2cc(CN[C@H]3CC[C@](C)(O)CC3)n(C)c12  131 to 132 °C
4  Cc1c(CN[C@H]2CC[C@](C)(O)CC2)n(C)c2c(C)c(NC(=O)c3ccc(OC[C@@H]4CCCO4)cc3)ccc12  183 to 184 °C

Exam item: Identify measured melting point corresponding to `Cc1c(CNCC(C)C)n(C)c2c(C)c(NC(=O)c3ccc(OC[C@@H]4CCCO4)cc3)ccc12`
Marked response: 171 to 172 °C

Exam item: Identify the reported melting point for the following entry. Cn1c(CNCC2CCOCC2)cc2cc(NC(=O)c3ccc(OCC4CCOC4)cc3)ccc21 (stereo not drawn)
Marked response: 153 to 154 °C

Exam item: # return recorded melting point for entry `Cc1c(NC(=O)c2ccc(OC[C@@H]3CCCO3)cc2)ccc2c1cc(CN[C@H]1CC[C@](C)(O)CC1)n2C.Cl`
Marked response: 278 °C
